Assay: modulators of AGP1-GFP expression in yeast TOR pathway, primary screen, cell-based, multiplex flow cytometry, S. cerevisiae, MLPCN library (AID 2066);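 further: median GFP channel fluorescence of the gated AGP1 strain per well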
Settings: 3 h, at 10 µM, active compounds read high, GFP as percent of DMSO wells
Screen size: about 320,000 compounds; about 50 (0.02%) were called active. For the sample, actives were picked, then their nearest neighbours and some compounds at random.
Reported property: GFP response vs DMSO (%)

* S=c1nc2ccccc2c2nc(-c3cccnc3)[nH]n12 | 102
* COC(=O)c1sccc1-n1cccc1C(=O)C(=O)N1CCCCC1 | 92.6
* O=C(Nc1ccc(S(=O)(=O)N2CCCCCC2)cc1)c1c(F)cccc1F | 93.4
* CCCN(CC1CC1)C(=O)COC(=O)c1ccc(C)cc1O | 99.2
* COc1cc(C)ccc1OCC(=O)OCC(=O)c1ccc[nH]1 | 100
* Cn1nnnc1SCC(=O)Nc1cccc(S(=O)(=O)N2CCCCC2)c1 | 77.3
* O=C1c2ccncc2C(=O)N1C1CCCCC1 | 111
* CC(=O)C[C@H](O)CC(=O)[C@@H]1OC(=O)[C@@H](C)C/C=C\Cc2ccccc21 | 98.2
* CN(CCCC(=O)Nc1nccs1)S(=O)(=O)c1ccc(Cl)cc1 | 103
* Cn1c(N)c(C(=O)COC(=O)C23CC4CC(CC(C4)C2)C3)c(=O)n(C)c1=O | 103
* C/C(CC(=O)NCc1ccc(Cl)cc1)=N\NC(=O)COc1ccc(C)cc1Br | 105
